Data provenance is patent US20260242350A1.

Target: THRβ (pGAL4-THRβ-LBD) (Homo sapiens, UniProt P10828)
Construct: expressed in transfected cells; host or cells: HEK293T
Sequence (P10828 217-461): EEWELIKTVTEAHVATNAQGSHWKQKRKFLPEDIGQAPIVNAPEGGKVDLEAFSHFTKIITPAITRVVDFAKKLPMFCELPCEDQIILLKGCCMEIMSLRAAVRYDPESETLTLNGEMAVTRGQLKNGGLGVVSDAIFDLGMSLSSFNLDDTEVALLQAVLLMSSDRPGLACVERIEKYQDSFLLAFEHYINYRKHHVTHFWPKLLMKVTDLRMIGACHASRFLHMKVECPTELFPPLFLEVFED
Assay: Reporter gene (Dual-Glo luciferase) agonist activity assay in HEK293T cells, THRβ
Assay type: cell-based
Conditions: ratio of EC50 THRα/THRβ
Reported metric: Selectivity (THRα/THRβ)

# annotated cases, reported Selectivity (THRα/THRβ) shown
compound=Nc1nn(-c2cc(Cl)c(Cn3ccc(=O)c4ccccc43)c(Cl)c2)c(=O)[nH]c1=O reported_metric="Selectivity (THRα/THRβ)" value_measured="† (5 ≥ THRα/β)"
compound=O=c1[nH]c(=O)n(-c2cc(Br)c(Cn3ccc(=O)c4ccccc43)c(Br)c2)nc1C(F)F reported_metric="Selectivity (THRα/THRβ)" value_measured="†††† (THRα/β > 20)"
compound=Cn1nc(-c2cc(Cl)c(Cn3ccc(=O)c4ccccc43)c(Cl)c2)c(=O)[nH]c1=O reported_metric="Selectivity (THRα/THRβ)" value_measured="† (5 ≥ THRα/β)"
compound=O=c1cnn(-c2cc(Cl)c(Cn3ccc(=O)c4ccccc43)c(Br)c2)c(=O)[nH]1 reported_metric="Selectivity (THRα/THRβ)" value_measured="† (5 ≥ THRα/β)"
compound=O=c1[nH]c(=O)n(-c2cc(Cl)c(Cn3ccc(=O)c4ccccc43)c(Cl)c2)nc1C(F)F reported_metric="Selectivity (THRα/THRβ)" value_measured="†††† (THRα/β > 20)"
compound=O=c1cnn(-c2cc(Cl)c(Cn3ccc(=O)c4ccccc43)c(Cl)c2)c(=O)[nH]1 reported_metric="Selectivity (THRα/THRβ)" value_measured="† (5 ≥ THRα/β)"
compound=O=c1cnn(-c2cc(Cl)c(Cn3ccc(=O)c4cc(Br)ccc43)c(Cl)c2)c(=O)[nH]1 reported_metric="Selectivity (THRα/THRβ)" value_measured="† (5 ≥ THRα/β)"
compound=O=c1cnn(-c2cc(Cl)c(Cn3ccc(=O)c4cc(Cl)ccc43)c(Cl)c2)c(=O)[nH]1 reported_metric="Selectivity (THRα/THRβ)" value_measured="† (5 ≥ THRα/β)"
compound=Cc1cccc2c1c(=O)ccn2Cc1c(Cl)cc(-n2ncc(=O)[nH]c2=O)cc1Br reported_metric="Selectivity (THRα/THRβ)" value_measured="††† (20 ≥ THRα/β > 10)"
compound="[2H]C(c1c(Br)cc(-n2nc(C(F)F)c(=O)[nH]c2=O)cc1Br)n1ccc(=O)c2ccccc21 (stereo not shown)" reported_metric="Selectivity (THRα/THRβ)" value_measured="††† (20 ≥ THRα/β > 10)"

Problem: Check THRβ (pGAL4-THRβ-LBD) (Homo sapiens, UniProt P10828) data and give Selectivity (THRα/THRβ) for O=c1cnn(-c2cc(Cl)c(Cn3ccc(=O)c4ccc(Cl)cc43)c(Cl)c2)c(=O)[nH]1 .
Solution: † (5 ≥ THRα/β)

Problem: Fetch value of Selectivity (THRα/THRβ) on THRβ (pGAL4-THRβ-LBD) (Homo sapiens, UniProt P10828) for [2H]C(F)(F)c1nn(-c2cc(Br)c(Cn3ccc(=O)c4ccccc43)c(Br)c2)c(=O)[nH]c1=O .
Solution: †††† (THRα/β > 20)

Problem: Please look at Cc1cccc2c1c(=O)ccn2Cc1c(Cl)cc(-n2ncc(=O)[nH]c2=O)cc1Cl and tell me its recorded Selectivity (THRα/THRβ) on THRβ (pGAL4-THRβ-LBD) (Homo sapiens, UniProt P10828).
Solution: † (5 ≥ THRα/β)

Problem: Answer briefly: Selectivity (THRα/THRβ) recorded on THRβ (pGAL4-THRβ-LBD) (Homo sapiens, UniProt P10828) for COC(=O)c1cc2c(=O)ccn(Cc3c(Cl)cc(-n4ncc(=O)[nH]c4=O)cc3Cl)c2cc1OC
Solution: † (5 ≥ THRα/β)

Problem: State, for THRβ (pGAL4-THRβ-LBD) (Homo sapiens, UniProt P10828), measured Selectivity (THRα/THRβ) of the compound listed here: Cc1cccc2c1c(=O)ccn2Cc1c(Cl)cc(-n2nc(C(F)F)c(=O)[nH]c2=O)cc1Br
Solution: † (5 ≥ THRα/β)

Problem: Consider the compound Cc1nn(-c2cc(Cl)c(Cn3ccc(=O)c4ccccc43)c(Cl)c2)c(=O)[nH]c1=O tested on THRβ (pGAL4-THRβ-LBD) (Homo sapiens, UniProt P10828); state its Selectivity (THRα/THRβ).
Solution: † (5 ≥ THRα/β)

Problem: State Selectivity (THRα/THRβ) (THRβ (pGAL4-THRβ-LBD) (Homo sapiens, UniProt P10828)) of O=c1cnn(-c2cc(Br)c(Cn3ccc(=O)c4ccccc43)c(Br)c2)c(=O)[nH]1 .
Solution: † (5 ≥ THRα/β)

Problem: Report its Selectivity (THRα/THRβ) with THRβ (pGAL4-THRβ-LBD) (Homo sapiens, UniProt P10828) as the test system: Cc1nn(-c2cc(Cl)c(Cn3ccc(=O)c4c(C)cccc43)c(Cl)c2)c(=O)[nH]c1=O
Solution: † (5 ≥ THRα/β)

Problem: GET Selectivity (THRα/THRβ) | system: THRβ (pGAL4-THRβ-LBD) (Homo sapiens, UniProt P10828) | item: Cc1nn(-c2cc(Cl)c(Cn3ccc(=O)c4c(C)cccc43)c(Br)c2)c(=O)[nH]c1=O
Solution: † (5 ≥ THRα/β)

Problem: # lookup: THRβ (pGAL4-THRβ-LBD) (Homo sapiens, UniProt P10828) Selectivity (THRα/THRβ), key = O=c1cnn(-c2cc(Cl)c(Cn3ccc(=O)c4c(Cl)cccc43)c(Cl)c2)c(=O)[nH]1
Solution: † (5 ≥ THRα/β)

Problem: Recall the reported Selectivity (THRα/THRβ) of Cc1nn(-c2cc(Br)c(Cn3ccc(=O)c4c(C)cccc43)c(Br)c2)c(=O)[nH]c1=O on THRβ (pGAL4-THRβ-LBD) (Homo sapiens, UniProt P10828) and write it down.
Solution: † (5 ≥ THRα/β)

Problem: Name the value of Selectivity (THRα/THRβ) reported for Cc1cccc2c1c(=O)ccn2Cc1c(Cl)cc(-n2nc(C(F)F)c(=O)[nH]c2=O)cc1Cl when tested on THRβ (pGAL4-THRβ-LBD) (Homo sapiens, UniProt P10828).
Solution: † (5 ≥ THRα/β)

Problem: Tell me its Selectivity (THRα/THRβ) on THRβ (pGAL4-THRβ-LBD) (Homo sapiens, UniProt P10828): O=c1cnn(-c2cc(Cl)c(Cn3ccc(=O)c4cc(OC(F)(F)F)ccc43)c(Cl)c2)c(=O)[nH]1
Solution: † (5 ≥ THRα/β)

Problem: # return Selectivity (THRα/THRβ) for Cc1cccc2c1c(=O)ccn2Cc1c(Br)cc(-n2nc(C(F)F)c(=O)[nH]c2=O)cc1Br , test system: THRβ (pGAL4-THRβ-LBD) (Homo sapiens, UniProt P10828)
Solution: † (5 ≥ THRα/β)

Problem: Please look at CCOC(=O)c1cn(Cc2c(Cl)cc(-n3ncc(=O)[nH]c3=O)cc2Cl)c2ccccc2c1=O and tell me its recorded Selectivity (THRα/THRβ) on THRβ (pGAL4-THRβ-LBD) (Homo sapiens, UniProt P10828).
Solution: † (5 ≥ THRα/β)

Problem: Supply Selectivity (THRα/THRβ) measured with THRβ (pGAL4-THRβ-LBD) (Homo sapiens, UniProt P10828) for Cc1nn(-c2cc(Br)c(Cn3ccc(=O)c4ccccc43)c(Br)c2)c(=O)[nH]c1=O .
Solution: † (5 ≥ THRα/β)

Problem: GET Selectivity (THRα/THRβ) where system = THRβ (pGAL4-THRβ-LBD) (Homo sapiens, UniProt P10828) and item = O=c1[nH]c(=O)n(-c2cc(Cl)c(Cn3ccc(=O)c4ccccc43)c(Br)c2)nc1C(F)F
Solution: †††† (THRα/β > 20)

Problem: Enter Selectivity (THRα/THRβ) (test system THRβ (pGAL4-THRβ-LBD) (Homo sapiens, UniProt P10828)) for C=Cc1nn(-c2cc(Cl)c(Cn3ccc(=O)c4ccccc43)c(Cl)c2)c(=O)[nH]c1=O
Solution: † (5 ≥ THRα/β)

Problem: Please respond with reported Selectivity (THRα/THRβ) (system THRβ (pGAL4-THRβ-LBD) (Homo sapiens, UniProt P10828)) for O=c1cnn(-c2cc(Cl)c(Cn3ccc(=O)c4cc(F)ccc43)c(Cl)c2)c(=O)[nH]1 .
Solution: † (5 ≥ THRα/β)

Problem: For THRβ (pGAL4-THRβ-LBD) (Homo sapiens, UniProt P10828), give the measured Selectivity (THRα/THRβ) of the entry O=c1[nH]c(=O)n(-c2cc(Cl)c(Cn3ccc(=O)c4ccccc43)c(Cl)c2)nc1CF
Solution: †††† (THRα/β > 20)
